pIC50: −log10 of the molar value.
// values below are pIC50; system is human VAP-1 enzyme (SSAO) (Homo sapiens (Human), UniProt Q16853)
Sequence (Q16853 whole entry): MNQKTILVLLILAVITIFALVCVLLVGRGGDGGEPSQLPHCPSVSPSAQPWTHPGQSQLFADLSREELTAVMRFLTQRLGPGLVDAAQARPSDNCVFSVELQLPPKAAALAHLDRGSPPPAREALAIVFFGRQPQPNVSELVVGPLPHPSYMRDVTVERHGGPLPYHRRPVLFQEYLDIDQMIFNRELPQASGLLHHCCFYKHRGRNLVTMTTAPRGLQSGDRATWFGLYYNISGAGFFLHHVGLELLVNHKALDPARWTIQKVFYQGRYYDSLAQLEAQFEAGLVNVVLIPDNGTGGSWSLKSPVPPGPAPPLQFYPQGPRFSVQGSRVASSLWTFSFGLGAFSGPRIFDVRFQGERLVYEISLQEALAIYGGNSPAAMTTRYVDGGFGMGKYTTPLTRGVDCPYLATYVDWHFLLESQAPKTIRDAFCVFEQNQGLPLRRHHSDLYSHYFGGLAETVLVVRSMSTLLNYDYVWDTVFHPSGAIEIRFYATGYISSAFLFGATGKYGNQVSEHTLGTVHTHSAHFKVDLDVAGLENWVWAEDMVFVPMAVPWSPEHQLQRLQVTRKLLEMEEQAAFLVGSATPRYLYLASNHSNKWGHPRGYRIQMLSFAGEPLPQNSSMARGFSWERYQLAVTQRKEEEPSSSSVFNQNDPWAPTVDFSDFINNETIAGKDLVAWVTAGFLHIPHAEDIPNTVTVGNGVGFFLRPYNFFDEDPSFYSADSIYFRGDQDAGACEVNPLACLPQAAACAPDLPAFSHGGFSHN
PROPERTY: pIC50

Below, each entry is followed by its recorded pIC50 result.
Cl.N=C(N)NC(=O)OCc1cccc(-c2cnc(N3CCOCC3)nc2)c1F [Example 81] :: 8.01
CC(=O)N1CCC(COc2ncc(-c3cccc(COC(=O)NC(=N)N)c3F)cn2)CC1 [Example 11] :: 8.28
N=C(N)NC(=O)OCc1cccc(N2CCN(c3ccn4ccnc4c3)CC2)c1F [Example 556] :: 8.57

(A) COCCC(=O)N1CCC(C2CN(c3cccc(COC(=O)NC(=N)N)c3F)C2)CC1 [Example 563]
(B) CC(=O)N1CCC(C2CN(c3cccc(COC(=O)NC(=N)N)c3F)C2)CC1 [Example 559]
Query string: Sort A and B by pIC50 descending and give the first. # answer = label of selected item
Result string: B
